Provide the recorded TGI for the entries that follow.
test system: IGROV1 ovarian; experiment: NCI tumour cell line growth inhibition, 48 h
Where a SMILES comes first, the peptide text is derived from it. Bridges are numbered along the chain shown (N, C = ends). [ ]: non-standard residue; d: D form. The star is where a group is joined. Cya = N[CH](CS(=O)(=O)O)C(=O)O; X49 = CC(C)CCCCCCCC(O)CC(=O)*; GABA = NCCCC(=O)O

Entry O=S(=O)(c1ccccc1)[C@H]1[C@@H]2O[C@@H]2C[C@@H]1O , tested on IGROV1 ovarian, has a reported TGI of > 100 µM

Field TGI (system: IGROV1 ovarian) for entry Cn1cnc2[nH]c(=O)[nH]c(=S)c21 = > 100 µM

# COC(=O)/C(=C(\C)NC(C)=O)c1c(C(=O)OC)[nH]c2ccccc12 with IGROV1 ovarian: TGI is > 100 µM

Form field, TGI with IGROV1 ovarian, item O=C(C=P(c1ccccc1)(c1ccccc1)c1ccccc1)CC(=S)CC(=O)C=P(c1ccccc1)(c1ccccc1)c1ccccc1 : > 100 µM

// assay IGROV1 ovarian, entry CC(C)CCCCCCCC(O)CC(=O)NC(CS(=O)(=O)O)C(=O)NC(CC(C)C)C(=O)NCCCC(=O)NC(Cc1cnc[nH]1)C(=O)NC(C)C(=O)NC1C(=O)NC(C(C)O)C(=O)NC(Cc2cnc[nH]2)C(=O)NC(C)C(=O)NC(C(C)O)C(=O)OC1C (stereo not drawn) (X49-[Cya]L[GABA]HATTHAT; ester 6-C; configuration not given here) , TGI value = > 25 µM

Record O=C(CCc1ccc(O)cc1)NCCc1cccc(O)c1 / IGROV1 ovarian, TGI recorded as > 50 µM

For the compound O=c1c(Br)c(-c2ccccc2)[nH]c2ccccc12 , the measured TGI on IGROV1 ovarian was > 100 µM

Record O=C1Cc2ccccc2N1/N=C\c1ccc([N+](=O)[O-])cc1 / IGROV1 ovarian, TGI recorded as > 100 µM

----------
test system: A498 renal
Could you please report measured GI50 for the items listed next?

Item C=CCSSC1N=CNc2nc[nH]c21 (stereo not given) ; assay system A498 renal; GI50 reported as 67.2 µM

GI50 for A498 renal with input CC(=O)N1CCN([C@H]2CCC[C@@H](NC(=O)c3cc4c(F)ccc(C)c4[nH]3)C2)CC1 equals 14 µM

Reported A498 renal GI50 for item O=C(/C=C/c1cccc(O)c1)c1cccc(-n2cc(-c3ccc(Cl)cc3)[nH]c2=O)c1 was 3.71 µM

# lookup: Clc1ccc(-c2ccc(CNCC3CCNCC3)o2)c(-c2ccccc2)c1 on A498 renal, GI50 = 1.71 µM

Reading of GI50 for Cc1ccc2cc3c(N)c4c(C)ccc(C)c4nc3nc2c1 with A498 renal: 11.9 µM

----------
So I've got a bunch of compounds here, and I need their GI50 values.
test system: OVCAR-4 ovarian; test: NCI tumour cell line growth inhibition, 48 h
Where a SMILES comes first, the peptide text is derived from it. [ ]: non-standard residue; d: D form. The star is where a group is joined. Nle = CCCC[C@H](N)C(=O)O; Cbz = O=C(OCc1ccccc1)*

// field: GI50; key: CC(C)OC(=O)Nc1ccc(-c2nc(-c3cccc(OCCN4CCOCC4)c3)c(-c3ccnc(Br)c3)[nH]2)cc1 ; value = 4.79 µM

Kindly note the recorded GI50 for O=C1OC(c2cccc(C(F)(F)F)c2)(c2cccc(C(F)(F)F)c2)c2ccc3ccccc3c21 , which is > 100 µM

Lookup result for COc1cccc2c(Nc3ccc(C(=O)O)cc3)cc(-c3ccccc3)nc12 ; measured GI50: > 100 µM

Note to self: GI50 recorded for CCCC[C@@H](C=O)NC(=O)[C@H](CC(C)C)NC(=O)[C@H](CC(C)C)NC(=O)OCc1ccccc1 (Cbz-Leu-Leu-[Nle]-aldehyde) was 1.07 µM

Entry CC#CC#Cc1cccc(=O)o1 ; GI50 = 13 µM

Hey, just so you know, these numbers are from PubChem BioAssay (NCI).
